B1: INTS3 (parent)
chain: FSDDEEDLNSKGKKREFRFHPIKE

variants of: B1; assay: protein stability index of a GFP-peptide fusion (GPS, HEK-293T) (PSI 1-6); higher = more stable; details: c terminus: a fixed tail appended;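 note: lentivirally expressed fusions sorted by FACS into six bins by GFP to DsRed ratio, PSI derived from sequencing read proportions per bin multiplied by bin number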
measure_name: protein stability index

Example results:
I22V	3.07
K13G	3.42
E16A	2.25
N9A	3.15

# protein stability index lookup, item E6Y
2.24

If you can, please state the reported protein stability index value of I22N .
2.88

May I ask what protein stability index has been recorded for H20Q ?
4.44

Which protein stability index is reported for this variant? R18Y
4.36

I'd like to know its protein stability index. The variant in question is N9S
2.98
